Target: human recombinant CRF-BP (Homo sapiens)
Construct: made in house
Sequence (P24387 25-322): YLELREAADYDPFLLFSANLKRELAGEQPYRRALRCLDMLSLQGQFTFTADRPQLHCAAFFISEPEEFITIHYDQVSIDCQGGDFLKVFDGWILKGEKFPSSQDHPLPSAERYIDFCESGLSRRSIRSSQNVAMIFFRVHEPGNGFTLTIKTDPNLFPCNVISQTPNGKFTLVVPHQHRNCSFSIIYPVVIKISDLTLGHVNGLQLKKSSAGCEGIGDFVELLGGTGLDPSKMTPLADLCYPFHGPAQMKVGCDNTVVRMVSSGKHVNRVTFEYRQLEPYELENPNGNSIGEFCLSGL
Assay: LIRMA: displacement of 125I-h/rCRF from CRF-BP, Ki
Assay type: binding
Details: read-out: inhibitory binding affinity constant (Ki)
Method: In LIRMA CRF-BP isolated from brain tissue, serum, or cells expressing a recombinant form, is added to wells of a 96-well plate, to small polypropylene microfuge tubes, or to glass borosilicate tubes in a binding buffer (0.02% NP-40 in 50 mM phosphate-buffered saline). ^125 I-h/rCRF (New England Nuclear) and the candidate ligand inhibitor at 10 μM are added and the reaction is incubated for 1 hour at room temperature. […]
ENDPOINT: Ki

For the molecule `O=c1oc2ccc3ccccc3c2c(O)c1C=NC(=S)Nc1ccc(Cl)cc1` , the measured Ki on human recombinant CRF-BP (Homo sapiens) was < 100 nM

For the molecule `O=c1oc2ccc(Cl)cc2c(O)c1C=NC(=S)Nc1ccccc1-c1ccccc1` , the measured Ki on human recombinant CRF-BP (Homo sapiens) was < 50 nM

For the molecule `O=c1oc2cc(Cl)ccc2c(O)c1C=Nc1nc2c(Cl)cccc2s1` , the measured Ki on human recombinant CRF-BP (Homo sapiens) was < 50 nM

For the molecule `O=c1oc2c(Cl)cc(Cl)cc2c(O)c1C=NC(=S)Nc1ccc(Cl)cc1` , the measured Ki on human recombinant CRF-BP (Homo sapiens) was < 50 nM

For the molecule `O=c1oc2ccc(Cl)cc2c(O)c1C=NC(=S)Nc1ccc(C2CCCCC2)cc1` , the measured Ki on human recombinant CRF-BP (Homo sapiens) was < 50 nM

For the molecule `O=c1oc2ccc(Cl)cc2c(O)c1C=NC(=S)Nc1ccc(Cl)cc1` , the measured Ki on human recombinant CRF-BP (Homo sapiens) was < 50 nM

For the molecule `O=c1oc2ccc(Cl)cc2c(O)c1C=NC(=S)Nc1ccc(C(F)(F)F)cc1` , the measured Ki on human recombinant CRF-BP (Homo sapiens) was < 50 nM

For the molecule `O=c1oc2cc(Cl)ccc2c(O)c1C=Nc1nc2ccc(Cl)cc2s1` , the measured Ki on human recombinant CRF-BP (Homo sapiens) was < 50 nM

For the molecule `CCn1c(=O)c(C=Nc2nc3ccccc3[nH]2)c(O)n(CCc2ccccc2)c1=S` , the measured Ki on human recombinant CRF-BP (Homo sapiens) was < 100 nM

For the molecule `O=c1oc2ccc(Cl)cc2c(O)c1C=Nc1nc2c(Cl)cccc2s1` , the measured Ki on human recombinant CRF-BP (Homo sapiens) was < 50 nM

For the molecule `O=c1oc2c(Cl)cccc2c(O)c1C=NC(=S)Nc1ccc(Cl)cc1` , the measured Ki on human recombinant CRF-BP (Homo sapiens) was < 50 nM

For the molecule `O=c1oc2ccc(Cl)cc2c(O)c1C=NC(=S)Nc1ccc(-c2ccccc2)cc1` , the measured Ki on human recombinant CRF-BP (Homo sapiens) was < 50 nM

For the molecule `O=c1oc2ccc(Cl)cc2c(O)c1C=NC(=S)Nc1c(Cl)cc(Cl)cc1Cl` , the measured Ki on human recombinant CRF-BP (Homo sapiens) was < 50 nM

For the molecule `O=c1oc2ccc(Cl)cc2c(O)c1C=NC(=S)Nc1ccc(Cl)c(Cl)c1` , the measured Ki on human recombinant CRF-BP (Homo sapiens) was < 50 nM

For the molecule `COc1cccc2sc(N=Cc3c(O)c4cc(Cl)ccc4oc3=O)nc12` , the measured Ki on human recombinant CRF-BP (Homo sapiens) was < 100 nM
